target: HLA-A*29:02; experiment: IEDB peptide-MHC binding, purified MHC/competitive/fluorescence; filed as Kd, often an IC50 or EC50 that approximates it; bounds were set here for any values at or beyond the usual limits of such assays; settings: source organism: Pseudomonas aeruginosa PACS2
Parameter: Kd

Problem: Which Kd value belongs to KLIDVSKCI ?
Result: ≥ 20 µM

---

molecular target: HLA-A*02:06; assay: IEDB peptide-MHC binding, purified MHC/competitive/radioactivity; filed as Kd, often an IC50 or EC50 that approximates it; bounds were set here for any values at or beyond the usual limits of such assays; conditions: source organism: Homo sapiens
Parameter: Kd

Examples with their reported Kd follow.
- DLKDQIAQL: ≥ 78.7 µM
- ELEALKTEL: ≥ 64.6 µM

Problem: Form field: Kd recorded for PLESDAVECL with HLA-A*02:06 (enter value)
Result: ≥ 68.5 µM

Origin of measurements: the Immune Epitope Database (IEDB)
